Listing of recorded Ki by entry.
ASSAY PROTOCOL: Inhibition of rabbit muscle GPb using alpha-D-glucose-1-phosphate as substrate by Lineweaver-Burk plot analysis
Design: species or system Oryctolagus cuniculus
Answer with a number only, understood to be in µM.

Exercise: Name the reported Ki value associated with the compound OC[C@H]1O[C@@H](c2csc(-c3ccc4ccccc4c3)n2)[C@H](O)[C@@H](O)[C@@H]1O
Key: 26.2

Exercise: Name the reported Ki value associated with the compound OC[C@H]1O[C@@H](c2c[nH]c(-c3ccccc3)n2)[C@H](O)[C@@H](O)[C@@H]1O
Key: 68.6

Exercise: Name the reported Ki value associated with the compound OC[C@H]1O[C@@H](c2c[nH]c(-c3ccc4ccccc4c3)n2)[C@H](O)[C@@H](O)[C@@H]1O
Key: 4.58

Exercise: Name the reported Ki value associated with the compound OC[C@H]1O[C@@H](c2csc(-c3ccccc3)n2)[C@H](O)[C@@H](O)[C@@H]1O
Key: 326
